Examples of sequences with documented thermal melting temperature follow.
Target: HLA-A*02:01;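 further: lysates heated 10 min at 37–73 °C, complexes pulled down with pan-HLA I antibody, peptide signal by DIA-MS relative to 37 °C, Tm where half the complex is unfolded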
Test: thermal melting temperature (Tm) of peptide-HLA complex; higher = more thermostable pHLA complex
Conditions: C1R-A*02:01
The full ranking holds about 1,100 sequences; the median of “thermal melting temperature (Tm) of peptide-HLA complex” is about 58, and the lowest 2% start at about 42. This is one part of a sample in which the lowest values are shown more often than they occur.
measuredEndpoint: thermal melting temperature (°C)

{"columns": ["orderedResidues", "unitAbbrev", "testValue"],
 "data": [
  ["ILEEKGLSQV", "°C", 59.1],
  ["YLPEDFIRVG", "°C", 46.8],
  ["FILPHISTA", "°C", 55.7],
  ["ILLDNDHYA", "°C", 50.4]
]}
